# credit: PubChem BioAssay (NCI)

System: A549 NSCLC
Test: NCI tumour cell line growth inhibition, 48 h
Hi there, I'd appreciate the recorded TGI for every entry that follows.

# TGI of `COc1cc(-n2cncc2-c2ccc3ccccc3c2)cc(OC)c1OC` = > 100 µM

Measured TGI of `CN(C)CCCNC(=O)CCNC(=O)c1cc(NC(=O)c2cc(NC(=O)c3cc(NC(=O)CCCNC(=O)c4cc(NC(=O)c5cc(NC(=O)c6nccn6C)cn5C)cn4C)cn3C)cn2C)cn1C` : > 100 µM

Entry under test: C=C1C(=O)OC2C1CC[C@H](C)C1(O)C(O)CC(=O)[C@@]21C (some centres undefined) . Its TGI was > 100 µM

Value of measured TGI for the entry COc1cc(C2c3cc4c(cc3OC(N3CCCCC3)C2C)OCO4)cc(OC)c1OC (centres undefined) : 36.1 µM

According to the records, this molecule `CCCCC/C=C\C=C1\C(=O)C=C[C@@H]1C/C=C\CCCC(=O)O` displays TGI of 18.7 µM

Measured TGI, `CC1(C)CCC(S(=O)(=O)c2ccc3c(c2)/C(=N\O)c2cc(S(=O)(=O)N4CCN(c5ccc(F)cc5O)CC4)ccc2-3)CC1` : 0.218 µM

# TGI of O=C(OC(CNc1c(C(=O)c2ccccc2)c(=O)n(Cc2ccccc2)c(=O)n1Cc1ccccc1)CN1CCOCC1)c1ccccc1 (centres undefined) = > 100 µM

Measured TGI, `COc1cc(/C=N/NC(=O)c2ccc(NC(C)=O)cc2OC)ccc1O` : > 100 µM

TGI for `COc1ccc(/C=C/C(=O)C(C)C)cc1` is > 100 µM
